Values were extracted from patent US10947196B2.

Record form. Attribute: EC50. Fill in for each entry.
- target_or_system: β1-adrenergic receptor (Homo sapiens (Human))
- Sequence (P08588 whole entry, species assumed): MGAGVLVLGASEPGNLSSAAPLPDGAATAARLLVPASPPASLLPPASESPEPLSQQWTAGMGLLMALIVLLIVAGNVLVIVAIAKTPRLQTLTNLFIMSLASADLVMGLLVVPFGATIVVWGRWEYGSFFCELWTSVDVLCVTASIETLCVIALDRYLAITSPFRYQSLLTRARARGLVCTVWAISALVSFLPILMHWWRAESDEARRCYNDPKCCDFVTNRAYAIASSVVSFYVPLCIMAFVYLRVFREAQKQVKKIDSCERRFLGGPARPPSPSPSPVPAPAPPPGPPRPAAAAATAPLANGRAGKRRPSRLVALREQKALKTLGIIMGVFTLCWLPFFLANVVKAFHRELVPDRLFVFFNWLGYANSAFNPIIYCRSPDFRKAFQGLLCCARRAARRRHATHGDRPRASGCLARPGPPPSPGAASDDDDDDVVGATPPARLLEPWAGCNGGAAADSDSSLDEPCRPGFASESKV
- assay_details: cAMP Gs dynamic HTRF assay, β1 expressing CHO cells
- Assay type: cell-based
- study_conditions: B1-AR; CHO-K1 (HitHunter); read-out: Average pEC50 [Receptor subtype: B1-AR; Cell type: CHO-K1 (HitHunter)] (converted)

Illustrative cases are given below, each with its answer.
CC(C)(C)NC[C@@H](O)c1cccc(N2CCCCC2)n1 [Compound 03-138]    > 1 µM
CC(C)(C)NC[C@H](O)c1cccnc1OC1CCC1 [Compound 03-72]    0.01 to 0.1 µM

Dear colleague, could you send me EC50 for each of the items below? Thanks.
1. COc1ccc(C[C@@H](C)NC[C@H](O)c2ccc(C)nc2)cc1 [Compound 03-249]
2. CC(C)(C)NC[C@@H](O)c1cccc(NC2CC2)n1 [Compound 03-250]
3. O[C@H](CNC1(C(F)(F)F)CC1)c1cccc(C(F)(F)F)n1 [Compound 03-235]
4. CC(C)(C)NC[C@H](O)c1cccc(-c2ccc[nH]2)n1 [Compound 03-95]
5. CC(C)(C)NC[C@H](O)c1cccc(Oc2ccccc2)n1 [Compound 03-195]
6. CC(C)(C)NC[C@H](O)c1cccc(-n2ccnc2)n1 [Compound 03-213]
7. Cc1cc([C@@H](O)CNC(C)(C)C)nc(C(F)(F)F)c1 [Compound 03-19]
8. CC(C)(C)NC[C@H](O)c1cccc(C2=NCCN2)n1 [Compound 03-86]

< 0.01 µM
> 1 µM
> 1 µM
< 0.01 µM
0.1 to 1 µM
> 1 µM
0.1 to 1 µM
> 1 µM

Dear colleague, could you send me EC50 for each of the items below? Thanks.
1. CC(C)(C)NC[C@H](O)c1ccnc(C(F)(F)F)n1 [Compound 03-45]
2. CC(C)(C)NC[C@H](O)c1cccc(-c2ccncc2)n1 [Compound 03-221]
3. CC(C)(C)NC[C@@H](O)c1cccc(OC(C)(C)C)n1 [Compound 03-273]
4. Cc1cccc([C@H](O)CNC(C)(C)C)n1 [Compound 03-47]
5. CNCc1cccc([C@@H](O)CNC(C)(C)C)n1 [Compound 03-252]

1. 0.01 to 0.1 µM
2. 0.01 to 0.1 µM
3. > 1 µM
4. > 1 µM
5. > 1 µM

Dear colleague, could you send me EC50 for each of the items below? Thanks.
1. CC(C)(C)NC[C@@H](O)c1cccc(-n2ccnc2)n1 [Compound 03-228]
2. CC(C)(C)NC[C@H](O)c1cc(F)cnc1C1=CCCC1 [Compound 03-89]
3. CC(C)(C)NC[C@@H](O)c1cccc(-c2ccccc2F)n1 [Compound 03-156]
4. CC(C)c1cccc([C@H](O)CNC(C)(C)C)n1 [Compound 03-176]

1. 0.01 to 0.1 µM
2. > 1 µM
3. > 1 µM
4. > 1 µM

----------
- target_or_system: hERG channel (Homo sapiens (Human), UniProt Q12809)
- Sequence (Q12809 whole entry): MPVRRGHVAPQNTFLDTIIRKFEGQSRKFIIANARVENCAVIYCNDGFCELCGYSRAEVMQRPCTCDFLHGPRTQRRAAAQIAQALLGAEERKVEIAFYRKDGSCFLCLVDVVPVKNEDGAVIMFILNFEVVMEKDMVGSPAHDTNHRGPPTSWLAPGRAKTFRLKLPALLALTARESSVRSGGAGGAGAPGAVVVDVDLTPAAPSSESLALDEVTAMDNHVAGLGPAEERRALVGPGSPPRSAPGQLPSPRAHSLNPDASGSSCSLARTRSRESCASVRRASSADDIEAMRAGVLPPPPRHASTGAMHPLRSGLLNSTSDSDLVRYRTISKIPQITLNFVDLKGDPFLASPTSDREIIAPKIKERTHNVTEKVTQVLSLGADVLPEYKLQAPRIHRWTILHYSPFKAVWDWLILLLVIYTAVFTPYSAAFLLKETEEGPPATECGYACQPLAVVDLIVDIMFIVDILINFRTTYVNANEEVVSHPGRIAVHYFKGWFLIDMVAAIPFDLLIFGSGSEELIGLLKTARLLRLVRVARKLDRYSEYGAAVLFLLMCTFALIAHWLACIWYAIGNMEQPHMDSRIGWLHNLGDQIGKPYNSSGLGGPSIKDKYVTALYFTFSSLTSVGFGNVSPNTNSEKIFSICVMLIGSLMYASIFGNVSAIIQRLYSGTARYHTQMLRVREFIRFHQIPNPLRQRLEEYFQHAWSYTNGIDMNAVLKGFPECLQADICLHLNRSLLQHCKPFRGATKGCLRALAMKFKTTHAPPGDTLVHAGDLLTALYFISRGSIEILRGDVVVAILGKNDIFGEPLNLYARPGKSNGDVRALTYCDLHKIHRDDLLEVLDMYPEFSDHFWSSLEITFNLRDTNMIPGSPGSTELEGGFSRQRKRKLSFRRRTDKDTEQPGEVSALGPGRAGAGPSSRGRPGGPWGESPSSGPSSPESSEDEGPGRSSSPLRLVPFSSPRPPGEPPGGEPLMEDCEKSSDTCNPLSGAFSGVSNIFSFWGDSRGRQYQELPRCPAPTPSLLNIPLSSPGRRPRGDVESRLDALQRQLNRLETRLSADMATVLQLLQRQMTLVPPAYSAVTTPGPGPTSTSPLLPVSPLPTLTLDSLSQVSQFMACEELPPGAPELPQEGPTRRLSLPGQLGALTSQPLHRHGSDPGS
- assay_details: hERG manual patch clamp
- Format: cell-based
- study_conditions: manual patch clamp, HEK 293 cells; read-out: hERG IC50
pIC50: −log10 of the molar value.
reported_property: pIC50

Noted for CC(C)(C)NC[C@H](O)c1cccc(C#N)n1 [Compound 03-5] : its pIC50 reads < 4.52

----------
Record form. Attribute: EC50. Fill in for each entry.
- target_or_system: β2 adrenergic receptor (Homo sapiens (Human), UniProt P07550)
- Sequence (P07550 whole entry, species assumed): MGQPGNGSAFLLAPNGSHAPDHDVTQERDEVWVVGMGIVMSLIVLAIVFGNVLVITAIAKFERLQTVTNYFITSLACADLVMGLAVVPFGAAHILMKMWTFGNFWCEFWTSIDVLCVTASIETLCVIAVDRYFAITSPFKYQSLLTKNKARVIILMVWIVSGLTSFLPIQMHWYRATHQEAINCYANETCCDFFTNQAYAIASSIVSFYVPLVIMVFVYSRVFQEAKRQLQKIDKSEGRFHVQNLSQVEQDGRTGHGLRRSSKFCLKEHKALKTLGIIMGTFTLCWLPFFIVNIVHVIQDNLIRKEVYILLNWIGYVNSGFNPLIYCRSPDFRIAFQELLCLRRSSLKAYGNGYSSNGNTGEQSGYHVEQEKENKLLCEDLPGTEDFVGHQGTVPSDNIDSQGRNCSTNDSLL
- assay_details: cAMP Gs dynamic HTRF assay, β2 expressing CHO cells
- Assay type: cell-based
- study_conditions: B2-AR; CHO-K1 (HitHunter); read-out: Average pEC50 [Receptor subtype: B2-AR; Cell type: CHO-K1 (HitHunter)] (converted)

CC(C)(C)NC[C@@H](O)c1cccc(NC2CCCC2)n1 [Compound 03-236]    100 to 1000 nM
Cc1ncc(F)cc1[C@@H](O)CNC(C)(C)C [Compound 03-258]    10 to 100 nM
CC(C)(C)NC[C@@H](O)c1cccc(-n2ccnc2)n1 [Compound 03-228]    < 10 nM
Cc1ccc([C@@H](O)CNC(C)(C)C)nc1C(F)(F)F [Compound 03-167]    < 10 nM
CC(C)(C)NC[C@@H](O)c1cccc(-c2ccccc2F)n1 [Compound 03-156]    10 to 100 nM
CN(C)c1cccc([C@@H](O)CNC(C)(C)C)n1 [Compound 03-153]    < 10 nM
COc1ccc(CC(C)(C)NC[C@H](O)c2cccc(C(F)(F)F)n2)cc1 [Compound 03-182]    < 10 nM
CC(C)(C)NC[C@H](O)c1cccc(N)n1 [Compound 03-98]    > 1000 nM

Moving on to the next compound.
Noted for CC(C)(C)NC[C@@H](O)c1cccc(NC2CCC2)n1 [Compound 03-229] : its EC50 reads > 1000 nM

----------
Record form. Attribute: Tmax. Fill in for each entry.
- assay_details: Mouse pharmacokinetic studies
- Assay type: in vivo, male C57BL/6J mice
- study_conditions: male, C57BL/6J, plasma, PO 5 mg/kg
Answers are plain numbers, in min.

CC(C)(C)NC[C@H](O)c1cccc(C#N)n1    55

Moving on to the next compound.
Noted for CC(C)(C)NC[C@H](O)c1cccc(C(F)(F)F)n1 : its Tmax reads 15

----------
- target_or_system: β2 adrenergic receptors in human astrocytoma cells (1321N1) (Homo sapiens (Human), UniProt P07550)
- Sequence (P07550 whole entry): as the sequence (P07550 whole entry, species assumed) above
- assay_details: cAMP HTRF assay in human astrocytoma cells (1321N1)
- Assay type: cell-based
- study_conditions: Endogenous receptor; 1321N1 cells
reported_property: Average pEC50 [Receptor subtype: Endogenous; Cell type: 1321N1]

Illustrative cases are given below, each with its answer.
CC(C)(C)NC[C@H](O)c1cccc(C#N)n1    C-B
CCOc1ncccc1[C@@H](O)CNC(C)(C)C    B (B = 8-7)
CC(C)(C)NC[C@H](O)c1cncc(C(F)(F)F)n1    C (C = <7-6)
CC(C)NC[C@H](O)c1cccc(C2CC2)n1    B (B = 8-7)
CC(C)(C)NC[C@H](O)c1cccnc1C1CCCC1    C (C = <7-6)
CC(C)(C)NC[C@H](O)c1cccnc1C1CC1    C (C = <7-6)

Dear colleague, could you send me Average pEC50 [Receptor subtype: Endogenous; Cell type: 1321N1] for each of the items below? Thanks.
1. CC(C)(C)NC[C@H](O)c1cccc(C(F)F)n1
2. CC(C)Oc1ncccc1[C@@H](O)CNC(C)(C)C

C (C = <7-6)
C (C = <7-6)

----------
- assay_details: Mouse CNS exposure measurement (plasma, CSF, brain)
- Format: in vivo, male C57BL/6J mice
- study_conditions: male, C57BL/6J, in vivo, sc, 1 mg/kg, SC 1 mg/kg, 60 min, read-out: Concentration, CSF
reported_property: concentration at 60 min (ng/mL)
Give bare numbers, in ng/mL.

Noted for Cc1ncccc1[C@@H](O)CNC(C)(C)C [Compound 03-115] : its concentration at 60 min reads 157

----------
- assay_details: Monkey pharmacokinetic studies
- Assay type: in vivo, male Non-Naïve Cynomolgus Monkeys
- study_conditions: male, cynomolgus monkey, plasma, PO 0.3 mg/kg
Record form. Attribute: AUC(0-t). Fill in for each entry.
Numbers only, in ng·h/mL.

CC(C)(C)NC[C@H](O)c1cccc(C(F)(F)F)n1    228

Noted for CC(C)(C)NC[C@H](O)c1cccc(C#N)n1 : its AUC(0-t) reads 343

----------
- target_or_system: UniProtKB P07550
- assay_details: cAMP Gs dynamic HTRF assay, β2 expressing CHO cells
- Type: cell-based
- study_conditions: B2-AR; CHO-K1 (HitHunter); read-out: Average pEC50 [Receptor subtype: B2-AR; Cell type: CHO-K1 (HitHunter)] (converted)
reported_property: EC50

Illustrative cases are given below, each with its answer.
CCN(CC)c1cccc([C@H](O)CNC(C)(C)C)n1 [Compound 03-160]    100 to 1000 nM
CC(C)(C)NC[C@H](O)c1cccc(C(C)(C)C)n1 [Compound 03-209]    < 10 nM

Dear colleague, could you send me EC50 for each of the items below? Thanks.
1. CC(C)(C)NC[C@@H](O)c1cccc(OC(C)(C)C)n1 [Compound 03-273]
2. CC(C)(C)NC[C@H](O)c1cccc(C(=O)O)n1 [Compound 03-240]

1: 100 to 1000 nM; 2: > 1000 nM

Dear colleague, could you send me EC50 for each of the items below? Thanks.
1. CC(C)(C)NC[C@H](O)c1cccc(C2=CCCC2)n1 [Compound 03-197]
2. CC(C)(C)NC[C@H](O)c1cccnc1CC(F)(F)F [Compound 03-84]
3. CC(C)(C)NC[C@H](O)c1cccc(-c2cccc(F)c2)n1 [Compound 03-131]
4. CC(C)(C)NC[C@H](O)c1cccc(-c2ccncc2)n1 [Compound 03-221]

1: < 10 nM; 2: > 1000 nM; 3: < 10 nM; 4: < 10 nM

Dear colleague, could you send me EC50 for each of the items below? Thanks.
1. [2H]C([2H])([2H])Nc1cccc([C@@H](O)CNC(C)(C)C)n1 [Compound 03-279]
2. Cc1cnc(C2CCCC2)c([C@@H](O)CNC(C)(C)C)c1 [Compound 03-77]
3. CC(C)(C)NC[C@@H](O)c1cccc(C(F)(F)F)n1 [Compound 03-43]
4. CCNc1ncccc1[C@@H](O)CNC(C)(C)C [Compound 03-73]
5. CC(C)Nc1cccc([C@H](O)CNC(C)(C)C)n1 [Compound 03-232]

100 to 1000 nM
> 1000 nM
100 to 1000 nM
> 1000 nM
10 to 100 nM

Dear colleague, could you send me EC50 for each of the items below? Thanks.
1. Cc1ncc(Cl)cc1[C@@H](O)CNC(C)(C)C [Compound 03-267]
2. CC(C)(C)NC[C@@H](O)c1cccc(C(C)(F)F)n1 [Compound 03-170]
3. CC(C)(C)NC[C@H](O)c1cccc(C(C)(F)F)n1 [Compound 03-169]

1: 10 to 100 nM; 2: 100 to 1000 nM; 3: < 10 nM

Dear colleague, could you send me EC50 for each of the items below? Thanks.
1. CC(C)(C)NC[C@H](O)c1cccc(-n2nccn2)n1 [Compound 03-101]
2. CC(C)(C)NCC(O)c1cncc(Cl)n1 (centres unmarked) [Compound 03-219]
3. CC(C)(C)NC[C@H](O)c1cccc(N2CCCCC2)n1 [Compound 03-137]

1. 10 to 100 nM
2. 100 to 1000 nM
3. < 10 nM

Tested on UniProtKB P07550: CC(C)(C)NC[C@H](O)c1ccnc(C#N)c1 [Compound 03-110] . Observed EC50: > 1000 nM
